assay: S. cerevisiae growth inhibition in permissive medium (OD615), pilot counter-assay for S. cerevisiae lifespan shortening project, permissive growth control (AID 705); conditions: OD615, 24 h, at 10 µM, stronger effect = higher value
readout.type: growth inhibition (%)
Enter your answer as a number in %; do not include the unit.

| compound | growth inhibition (%) |
| --- | --- |
| CCOc1ccc(-c2nc(CSCC(=O)N3CCN(c4cccc(OC)c4)CC3)c(C)o2)cc1 | 5.25 |

Enquiry: Look at this compound and give its reported growth inhibition. COCCNc1oc(-c2ccccc2Cl)nc1C#N
Return: -7.99

Enquiry: Look at this compound and give its reported growth inhibition. CCc1ccccc1S(=O)(=O)Cc1ccc(C(=O)N2CCN(c3ccccc3OC)CC2)o1
Return: -12.5

Enquiry: Look at this compound and give its reported growth inhibition. CCOC(=O)CSc1nc2c(c(=O)n(C)c(=O)n2C)n1Cc1ccccc1F
Return: -8.61

Enquiry: Look at this compound and give its reported growth inhibition. O=C(Cn1c(=O)sc2ccccc21)NCc1ccccn1
Return: 1.44

Enquiry: Look at this compound and give its reported growth inhibition. CN1CSC2=C(C#N)C(c3cccc(OCc4ccccc4)c3)CC(=O)N2C1 (stereo unspecified)
Return: -5.43

Enquiry: Look at this compound and give its reported growth inhibition. Brc1ccccc1-c1nnc(CSc2nnc3sc4ccccc4n23)o1
Return: 16.1

* * *

test: MRP1 drug-resistance reversers in H69AR cells – cell-based, doxorubicin co-treatment, pilot screen (AID 601); conditions: H69AR cells + 2 uM doxorubicin, CellTiter-Glo, 72 h; measured here: viability with 2 uM doxorubicin; at 10 µM; stronger effect = lower value
readout.type: viability (%)
Enter your answer as a number in %; do not include the unit.

Observe how each entry below is paired with its result.
| molecule | viability [%] |
| --- | --- |
| O=c1c2cn[nH]c2nc(SCc2ccc3c(c2)OCCO3)n1-c1ccccc1 | 83.9 |
| O=S1(=O)C=C(Sc2nnc(-c3ccccc3)o2)c2ccccc21 | 1.27 |
| S=c1[nH]ncn1-c1ccccn1 | 98.6 |
| CC1(c2ccc(OC(F)F)cc2)NC(=O)N(CC(=O)Nc2ccc3c(c2)OCO3)C1=O (stereo not drawn) | 94.7 |
| Cc1cc(N2C(=O)C(O)=C(C(=O)c3ccc(C)o3)C2c2cccs2)no1 (stereo not drawn) | 84.5 |

Enquiry: Look at this molecule and give its reported viability. CCS(=O)(=O)c1nc2ccccc2n1CC(=O)N1CCOCC1
Return: 87.2

Enquiry: Look at this molecule and give its reported viability. O=c1oc2ccccc2c(O)c1CN1CCCCC1
Return: 83.8

Enquiry: Look at this molecule and give its reported viability. CN1CCN(c2nc(-c3ccncc3)nc3ccccc23)CC1
Return: 28.8

Enquiry: Look at this molecule and give its reported viability. c1ccc2[nH]c(CSc3nnc(-c4ccncc4)o3)nc2c1
Return: 96.7

Enquiry: Look at this molecule and give its reported viability. CCOC(=O)Cc1nnc(NC(=O)c2ncn[nH]2)s1
Return: 101

Enquiry: Look at this molecule and give its reported viability. COc1ccc(C(=O)Cn2nnc(-c3cccs3)n2)cc1
Return: 85.9

Enquiry: Look at this molecule and give its reported viability. O=C(Nc1ccc2c(c1)OCO2)c1cccc(Cl)c1
Return: 90.3

* * *

test: viability of PTEN-null HCT116 cells – cell-based, HCT116 clonal line, CellTiter-Glo, pilot screen (AID 824); details: HCT116 PTEN-deleted viability, 60 h, at 10 µM, stronger effect = lower value;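 note: 0% = 20 µM Hyamine control and 100% = vehicle cell control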
Results filed as inconclusive are left out.
readout.type: viability (%)
Enter your answer as a number in %; do not include the unit.

| structure.string | unit.label | viability |
| --- | --- | --- |
| COC(=O)CSc1nc2ccc(NC(=O)CSc3nnnn3Cc3ccccc3)cc2s1 | % | 96.9 |

Enquiry: Look at this molecule and give its reported viability. COc1ccc(C(=O)/C=C/Nc2cc(C)on2)cc1
Return: 97

Value source: PubChem BioAssay
